biological target: muscarinic receptors (Cavia porcellus, UniProt H0W1Z3); construct: a distal portion of guinea pig ileum was cut and a segment (1-1.5 cm) was tied at both ends; assay: Guinea pig ileum bioassay (isotonic contractions); conditions: guinea pig ileum, in vitro; read-out: ED50 (the source's name)
Sequence (H0W1Z3 1-590): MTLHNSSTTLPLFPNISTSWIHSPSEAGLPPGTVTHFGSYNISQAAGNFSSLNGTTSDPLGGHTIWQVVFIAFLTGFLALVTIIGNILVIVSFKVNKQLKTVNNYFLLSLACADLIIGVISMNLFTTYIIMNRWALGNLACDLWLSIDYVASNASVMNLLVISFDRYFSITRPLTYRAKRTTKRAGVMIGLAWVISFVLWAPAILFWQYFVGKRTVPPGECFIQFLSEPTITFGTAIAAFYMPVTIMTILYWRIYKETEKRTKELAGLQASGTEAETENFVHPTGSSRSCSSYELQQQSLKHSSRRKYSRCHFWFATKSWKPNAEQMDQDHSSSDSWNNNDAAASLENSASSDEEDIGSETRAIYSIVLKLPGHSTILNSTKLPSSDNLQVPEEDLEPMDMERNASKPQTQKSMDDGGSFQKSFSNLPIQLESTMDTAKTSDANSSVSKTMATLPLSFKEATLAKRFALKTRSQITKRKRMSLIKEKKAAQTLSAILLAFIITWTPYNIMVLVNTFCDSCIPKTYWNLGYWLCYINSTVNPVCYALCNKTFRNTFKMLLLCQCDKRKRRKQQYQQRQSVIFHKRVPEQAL
pEC50: −log10 of the molar value.
metric: pEC50

CCN1C(=O)OC[C@@H]1Cc1cncn1C
6.00

[1] CCN1C(=O)OC[C@@H]1Cc1cn(C)cn1
[2] CCN1C(=O)OC[C@@H]1Cc1c[nH]cn1
Select the item whose pEC50 value is smaller, choosing between 1 and 2 . Please indicate the selected item by its label. 2
(2: 3.74, 1: 4.85)

###

Target: muscarinic receptors (Cavia porcellus, UniProt H0W1Z3)
Construct: a distal portion of guinea pig ileum was cut and a segment (1-1.5 cm) was tied at both ends; from tissue; host or cells: guinea pig distal ileum segment (isolated organ bath)
Experiment: Guinea pig ileum bioassay (isotonic contractions)
Conditions: guinea pig ileum, in vitro
Procedure: Guinea Pig Ileum Bioassay. Briefly, a distal portion of guinea pig ileum was cut and a segment (1-1.5 cm) was tied at both ends. One end was connected to a force displacement transducer and the other end to the muscle holder in a 5 ml organ bath. […] After the tissue was allowed to equilibrate for 45-60 minutes, single doses of agonists were administered into the bath and isotonic contractions were recorded on a Grass polygraph.
metric: muscarinic agonist activity (in words)

CCN1C(=O)OC[C@@H]1Cc1cn(Cc2ccccc2)cn1
inactive
CCN1C(=O)OC[C@@H]1Cc1c[n+](Cc2ccccc2)cn1C
inactive
